Target: CK1α (Homo sapiens, UniProt P48729+Q96SW2)
Construct: expressed in transfected cells; host or cells: HEK293T (lentiviral transduction, puromycin selection, FACS sorting)
Sequence (P48729 whole entry): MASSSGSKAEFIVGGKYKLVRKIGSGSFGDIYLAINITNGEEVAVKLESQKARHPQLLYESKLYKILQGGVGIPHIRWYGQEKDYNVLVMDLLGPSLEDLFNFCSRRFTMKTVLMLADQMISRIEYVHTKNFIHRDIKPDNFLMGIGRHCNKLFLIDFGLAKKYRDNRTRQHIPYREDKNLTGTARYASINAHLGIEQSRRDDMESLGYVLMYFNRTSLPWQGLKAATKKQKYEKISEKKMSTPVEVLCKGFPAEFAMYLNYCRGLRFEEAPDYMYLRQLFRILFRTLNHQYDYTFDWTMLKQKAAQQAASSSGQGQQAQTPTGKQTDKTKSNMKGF
Sequence (Q96SW2 whole entry): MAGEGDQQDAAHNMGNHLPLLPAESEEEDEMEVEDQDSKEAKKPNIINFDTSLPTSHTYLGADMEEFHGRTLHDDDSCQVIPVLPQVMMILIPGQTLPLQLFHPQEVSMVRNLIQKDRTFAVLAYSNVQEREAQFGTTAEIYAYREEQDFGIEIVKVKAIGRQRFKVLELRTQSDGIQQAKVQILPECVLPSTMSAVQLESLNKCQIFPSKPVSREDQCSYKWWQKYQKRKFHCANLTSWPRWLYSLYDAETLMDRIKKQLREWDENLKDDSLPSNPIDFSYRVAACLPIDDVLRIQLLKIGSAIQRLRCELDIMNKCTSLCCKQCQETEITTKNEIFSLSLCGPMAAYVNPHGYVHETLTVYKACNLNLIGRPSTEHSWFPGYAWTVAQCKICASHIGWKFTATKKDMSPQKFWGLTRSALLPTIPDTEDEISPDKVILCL
Sequence (Q16531 whole entry partner): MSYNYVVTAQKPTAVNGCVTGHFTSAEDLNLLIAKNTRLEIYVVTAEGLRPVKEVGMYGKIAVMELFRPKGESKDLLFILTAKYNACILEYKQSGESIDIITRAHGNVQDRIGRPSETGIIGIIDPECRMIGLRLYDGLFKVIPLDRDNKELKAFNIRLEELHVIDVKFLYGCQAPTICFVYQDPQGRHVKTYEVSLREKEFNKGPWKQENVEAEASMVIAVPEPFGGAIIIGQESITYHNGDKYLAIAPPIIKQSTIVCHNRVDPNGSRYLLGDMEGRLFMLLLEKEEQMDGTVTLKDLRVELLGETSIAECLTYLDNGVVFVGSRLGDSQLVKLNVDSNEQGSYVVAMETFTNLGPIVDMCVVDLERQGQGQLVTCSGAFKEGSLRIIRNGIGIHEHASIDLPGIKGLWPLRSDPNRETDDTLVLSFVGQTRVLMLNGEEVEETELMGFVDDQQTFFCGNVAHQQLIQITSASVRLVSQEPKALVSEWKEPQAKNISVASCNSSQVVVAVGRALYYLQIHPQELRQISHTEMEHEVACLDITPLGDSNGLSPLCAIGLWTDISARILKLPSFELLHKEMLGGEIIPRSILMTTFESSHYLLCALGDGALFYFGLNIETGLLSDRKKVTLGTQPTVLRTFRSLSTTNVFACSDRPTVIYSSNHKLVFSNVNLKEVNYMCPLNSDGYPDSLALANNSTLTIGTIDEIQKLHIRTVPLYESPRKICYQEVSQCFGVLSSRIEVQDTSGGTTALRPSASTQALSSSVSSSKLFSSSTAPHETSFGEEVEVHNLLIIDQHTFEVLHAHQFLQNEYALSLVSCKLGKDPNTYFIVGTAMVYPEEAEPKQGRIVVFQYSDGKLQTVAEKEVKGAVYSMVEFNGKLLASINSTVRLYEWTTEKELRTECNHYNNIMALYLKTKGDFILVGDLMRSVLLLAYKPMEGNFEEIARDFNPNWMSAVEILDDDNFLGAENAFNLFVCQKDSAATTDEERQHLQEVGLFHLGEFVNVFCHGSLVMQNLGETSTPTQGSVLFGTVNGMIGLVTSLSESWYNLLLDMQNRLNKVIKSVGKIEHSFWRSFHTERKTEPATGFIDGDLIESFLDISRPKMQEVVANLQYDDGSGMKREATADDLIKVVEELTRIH
Experiment: Flow cytometry for measuring degradation, HEK293T GFP-POI reporter cells (CK1α)
Assay type: cell-based
Conditions: 1 μM, 24 h, HEK293T GFP reporter
reportedProperty: CK1α % degradation at 1 μM (%)

| compound | CK1α % degradation at 1 μM, % |
| --- | --- |
| O=C1CCC(N2Cc3cc(NC(=O)c4ccc(Sc5ccccc5)cc4)ccc3C2=O)C(=O)N1 (stereo not shown) | 60.4 |
| CN1C(=O)COc2cc(C(=O)Nc3ccc4c(c3)CN(C3CCC(=O)NC3=O)C4=O)ccc21 (stereo not shown) | 71.5 |
| COc1ccc2c(c1)C=C(C(=O)Nc1ccc3c(c1)CN(C1CCC(=O)NC1=O)C3=O)CO2 (stereo not shown) | 69.5 |
| COc1ccc(/C=C/C(=O)Nc2ccc3c(c2)CN(C2CCC(=O)NC2=O)C3=O)cc1 (stereo not shown) | 68.3 |
| COCOc1ccc2cc(C(=O)Nc3ccc4c(c3)CN(C3CCC(=O)NC3=O)C4=O)ccc2c1 (stereo not shown) | 80.1 |
| O=C1CCC(N2Cc3cc(NC(=O)C4=Cc5ccc(C(F)(F)F)cc5OC4)ccc3C2=O)C(=O)N1 (stereo not shown) | 72 |
| O=C1CCC(N2Cc3cc(NC(=O)c4ccc5c(c4)OCCO5)ccc3C2=O)C(=O)N1 (stereo not shown) | 55.4 |
| O=C1CCC(N2Cc3cc(NC(=O)C4=Cc5ccccc5OC4)ccc3C2=O)C(=O)N1 (stereo not shown) | 72.8 |
| COc1ccc(Oc2ccc(C(=O)Nc3ccc4c(c3)CN(C3CCC(=O)NC3=O)C4=O)cc2)cc1 (stereo not shown) | 55.8 |
| Cc1ccc2c(c1)OCC(C(=O)Nc1ccc3c(c1)CN(C1CCC(=O)NC1=O)C3=O)=C2 (stereo not shown) | 66.9 |
| O=C(/C=C/c1ccccc1)Nc1ccc2c(c1)CN(C1CCC(=O)NC1=O)C2=O (stereo not shown) | 67 |
| COc1ccc2c(CC(=O)Nc3ccc4c(c3)CN(C3CCC(=O)NC3=O)C4=O)cccc2c1 (stereo not shown) | 57 |
| O=C1CCC(N2Cc3cc(NC(=O)c4ccc5occc5c4)ccc3C2=O)C(=O)N1 (stereo not shown) | 64.7 |

---

Molecular target: CK1α (Homo sapiens, UniProt P48729+Q96SW2)
Construct: expressed in transfected cells; host or cells: HEK293T (lentiviral transduction, puromycin selection, FACS sorting)
Assay: Flow cytometry for measuring degradation, HEK293T GFP-POI reporter cells (CK1α)
Type: cell-based
Details: 100 nM, 24 h, HEK293T GFP reporter
reportedProperty: CK1α % degradation at 100 nM (%)

| molecule | CK1α % degradation at 100 nM [%] |
| --- | --- |
| COc1ccc2cccc(CC(=O)Nc3ccc4c(c3)CN(C3CCC(=O)NC3=O)C4=O)c2c1 (centres unmarked) | 59.7 |
| O=C(/C=C/c1ccccc1)Nc1ccc2c(c1)CN(C1CCC(=O)NC1=O)C2=O (centres unmarked) | 60.2 |
| COc1cc(Br)cc2c1OCC(C(=O)Nc1ccc3c(c1)CN(C1CCC(=O)NC1=O)C3=O)=C2 (centres unmarked) | 64.7 |
| O=C1CCC(N2Cc3cc(NC(=O)C4=Cc5ccc(Br)cc5OC4)ccc3C2=O)C(=O)N1 (centres unmarked) | 61.9 |
| Cc1ccc2c(c1)OCC(C(=O)Nc1ccc3c(c1)CN(C1CCC(=O)NC1=O)C3=O)=C2 (centres unmarked) | 63.5 |
